Target: Recombinant human his-tagged IGF 1R extracellular domain protein (human) (UniProt P08069)
Test: SPR, captured IgG, IGF-1R ECD-his analyte, dissociation pH 7.4
PROPERTY MEASURED: Kd
Dear colleague, please send the value followed by its unit.

| BINDER | PROPERTY MEASURED | TEST VALUE |
| --- | --- | --- |
| VRDN-02539 (antibody, V domains shown) VH: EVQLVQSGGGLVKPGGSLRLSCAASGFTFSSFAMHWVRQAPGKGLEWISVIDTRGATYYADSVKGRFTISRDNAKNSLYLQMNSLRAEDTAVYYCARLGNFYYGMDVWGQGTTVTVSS VL: EIVLTQSPGTLSVSPGERATLSCRASQSIGSSLHWYQQKPGQAPRLLIKHASQSLSGIPDRFSGSGSGTDFTLTISRLEPEDFAVYYCHQSSRLPHTFGQGTKVEIK | Kd | 5.88 pM |
| VRDN-02508 (antibody, V domains shown) VH: EVQLVQSGGGLVKPGGSLRLSCAASGFTFSSFHMHWVRQAPGKGLEWISVIDTRGATYYADSVKGRFTISRDNAKNSLYLQMNSLRAEDTAVYYCARLGNFYYGMDVWGQGTTVTVSS VL: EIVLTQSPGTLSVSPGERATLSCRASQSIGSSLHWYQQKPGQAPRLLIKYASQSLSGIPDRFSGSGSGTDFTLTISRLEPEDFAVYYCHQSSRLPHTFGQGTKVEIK | Kd | 5.15 pM |

# input for lookup
Input line: Please give the measured Kd for this binder: VRDN-02545 (antibody, V domains shown) VH: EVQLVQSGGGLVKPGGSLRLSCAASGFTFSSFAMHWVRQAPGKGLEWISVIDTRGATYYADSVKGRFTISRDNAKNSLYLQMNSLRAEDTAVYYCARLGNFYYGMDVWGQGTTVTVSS VL: EIVLTQSPGTLSVSPGERATLSCRASQSIGSSLHWYQQKPGQAPRLLIKYASQSLHGIPDRFSGSGSGTDFTLTISRLEPEDFAVYYCHQSSRLPHTFGQGTKVEIK
Output line: 622 pM
